This collection of values is drawn from PubChem BioAssay.

- PROTOCOL_NOTES: Restrictive medium S. cerevisiae growth inhibition, OD615, pilot screen of yeast lifespan reduction project, restrictive growth control (AID 706);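 further: modified DeaD lifespan yeast strain shifted to restrictive glucose medium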
- PARTICULARS: OD615, 48 h, at 10 µM, stronger effect = higher value
This listing pairs compounds with measured growth inhibition.
PARAMETER: growth inhibition (%)

COMPOUND: CCOC(=O)C1CCCN(c2c(NCCCN3CCCC(C)C3)c(=O)c2=O)C1 (stereo not given)
PARAMETER: growth inhibition
RESULT_VALUE: 3.15
--
COMPOUND: COc1ccc(OC)c(NC(=O)CSc2nnc(Cn3c(=O)sc4ccccc43)n2C)c1
PARAMETER: growth inhibition
RESULT_VALUE: -1.53
--
COMPOUND: O=C(C1CCN(c2ncnc3c2sc2cccc(F)c23)CC1)N1CCOCC1
PARAMETER: growth inhibition
RESULT_VALUE: 2.17
--
COMPOUND: COCCCN(C(=O)Nc1ccccc1)C(C)c1ccncc1 (stereo not given)
PARAMETER: growth inhibition
RESULT_VALUE: -0.975
--
COMPOUND: COc1ccc(-n2c(Cn3c(=O)sc4ccccc43)nnc2SC)cc1
PARAMETER: growth inhibition
RESULT_VALUE: -8.38
--
COMPOUND: CC(=O)N(c1c(C)n(C)n(-c2ccccc2)c1=O)C1(C(=O)NC2CCCC2)CCCCC1
PARAMETER: growth inhibition
RESULT_VALUE: -19
--
COMPOUND: CCOc1ccc(CC(=O)Nc2c(C(N)=O)oc3ccc(Br)cc23)cc1OCC
PARAMETER: growth inhibition
RESULT_VALUE: -15.8
--
COMPOUND: Cc1c(C(=O)N2CCCc3ccccc32)sc2nc(-c3ccccc3)cn12
PARAMETER: growth inhibition
RESULT_VALUE: 0.195
--
COMPOUND: CCCC(=O)NCCc1cc2ccc(C)c(C)c2[nH]c1=O
PARAMETER: growth inhibition
RESULT_VALUE: -25.4
--
COMPOUND: COc1ccc(Nc2nnc(Cc3ccc(Cl)cc3)c(=O)[nH]2)c(OC)c1
PARAMETER: growth inhibition
RESULT_VALUE: -13
--
COMPOUND: CCOc1ccc(NC(=O)CN(c2ccc(OC)cc2)S(C)(=O)=O)cc1
PARAMETER: growth inhibition
RESULT_VALUE: -0.54
--
COMPOUND: CCOC(=O)N1CCN(C(=O)c2ccc3c(SCC(=O)O)c4c(nc3c2)CCC4)CC1
PARAMETER: growth inhibition
RESULT_VALUE: 3.22
--
COMPOUND: O=C(Cn1cc2c(n1)CCCC2)N1CCCc2ccccc21
PARAMETER: growth inhibition
RESULT_VALUE: 4.04
--
COMPOUND: Cc1ccc(-c2ccc(CCC(=O)O)n2CC(=O)O)cc1
PARAMETER: growth inhibition
RESULT_VALUE: -11.2
--
COMPOUND: COc1ccc(C2C(C(=O)N3CCN(c4ccccc4)CC3)c3ccccc3C(=O)N2C)cc1 (stereo not given)
PARAMETER: growth inhibition
RESULT_VALUE: -17.6
--
COMPOUND: COc1ccc(-n2ncc3c(N4CCN(c5cc(C)ccc5C)CC4)ncnc32)cc1
PARAMETER: growth inhibition
RESULT_VALUE: 4.27
--
COMPOUND: O=C(CCN1C(=O)c2ccccc2C1=O)OCn1nnc2ccccc2c1=O
PARAMETER: growth inhibition
RESULT_VALUE: -15.3
--
COMPOUND: Cc1nn(CCCC(=O)N2CCc3ccccc3C2)c(=O)c2cc3sccc3n12
PARAMETER: growth inhibition
RESULT_VALUE: -14.2
--
COMPOUND: C=C1CC2C=C(NC(C)=O)CC(C1)C2 (stereo not given)
PARAMETER: growth inhibition
RESULT_VALUE: -12.7
--
COMPOUND: Cc1ccc(CCN2C(=O)CCC2(C)C(=O)NC2CCCC2)cc1 (stereo not given)
PARAMETER: growth inhibition
RESULT_VALUE: -1.27
--
COMPOUND: O=C(CN1CCN(c2ncccn2)CC1)NCCC1=CCCCC1
PARAMETER: growth inhibition
RESULT_VALUE: -27.1
--
COMPOUND: Oc1ccccc1CNc1nc2ccccc2n1CCN1CCCCC1
PARAMETER: growth inhibition
RESULT_VALUE: -9.88
--
COMPOUND: Cc1cc(C(=O)Nc2nnc(C3CCCCC3)s2)cs1
PARAMETER: growth inhibition
RESULT_VALUE: 1.04
--
COMPOUND: CCCOC(=O)C1=C(C)NC2=C(C(=O)CC(C)(C)C2)C1c1ccc(N(C)C)cc1 (stereo not given)
PARAMETER: growth inhibition
RESULT_VALUE: 0.07
--
COMPOUND: Cc1ccc(C(=O)NCCn2cc(SCC(=O)Nc3cc(C)on3)c3ccccc32)cc1
PARAMETER: growth inhibition
RESULT_VALUE: 9.18
--
COMPOUND: Cc1cc(C)c(C#N)c(SCC(=O)c2cccs2)n1
PARAMETER: growth inhibition
RESULT_VALUE: 1.01
--
COMPOUND: O=C(NCc1cccnc1)C1CC(=O)N(c2ccc(F)cc2)C1 (stereo not given)
PARAMETER: growth inhibition
RESULT_VALUE: -11.7
--
COMPOUND: N#CC1=C2SCN(c3ccc(F)cc3)CN2C(=O)CC1c1cccc(F)c1 (stereo not given)
PARAMETER: growth inhibition
RESULT_VALUE: 7.57
--
COMPOUND: O=C(Cn1cnc2c(nnn2-c2ccccc2)c1=O)N1CCOCC1
PARAMETER: growth inhibition
RESULT_VALUE: -7.92
--
COMPOUND: Cc1ccccc1NC(=O)CN(C)S(=O)(=O)c1cccc2cccnc12
PARAMETER: growth inhibition
RESULT_VALUE: -1.7
--
COMPOUND: CCCCn1nc(NC(=O)c2cccs2)c2cc3ccccc3nc21
PARAMETER: growth inhibition
RESULT_VALUE: -8.93
--
COMPOUND: CCOc1cc2c(cc1OCC)C(c1ccc(O)c(OC)c1)NCC2 (stereo not given)
PARAMETER: growth inhibition
RESULT_VALUE: -11.5
--
COMPOUND: CCC(C#CCN1CCOCC1)(CC)OCCC#N
PARAMETER: growth inhibition
RESULT_VALUE: -3.89
--
COMPOUND: O=c1cnn(-c2ccccc2)c(-c2ccccc2)c1
PARAMETER: growth inhibition
RESULT_VALUE: -5.25
--
COMPOUND: COc1ccc(C(=O)NCC(c2cccnc2)N2CCN(c3ccccc3)CC2)cc1OC (stereo not given)
PARAMETER: growth inhibition
RESULT_VALUE: 0.095
--
COMPOUND: COc1ccc(N2CC(C(=O)NC3CC(C)(C)NC(C)(C)C3)CC2=O)cc1 (stereo not given)
PARAMETER: growth inhibition
RESULT_VALUE: -4.41
--
COMPOUND: CCOC1CCCCC1NS(=O)(=O)c1ccc(Cl)cc1 (stereo not given)
PARAMETER: growth inhibition
RESULT_VALUE: 1.71
--
COMPOUND: Cn1c(NC(=O)CC(C)(C)C)cc(=O)n(C)c1=O
PARAMETER: growth inhibition
RESULT_VALUE: -7.82
--
COMPOUND: CN1C(=O)CC(N2CCN(c3ncccn3)CC2)C1=O (stereo not given)
PARAMETER: growth inhibition
RESULT_VALUE: -4.12
--
COMPOUND: Brc1ccc(-c2nnc(-c3ccccc3Br)o2)cc1
PARAMETER: growth inhibition
RESULT_VALUE: -1.09
--
COMPOUND: CC(C)N(Cc1nc(-c2ccccc2)no1)C(=O)c1ccc(Cl)cc1
PARAMETER: growth inhibition
RESULT_VALUE: -12
--
COMPOUND: CCSCCOC(=O)C1=C(C)NC(=O)NC1c1ccccc1 (stereo not given)
PARAMETER: growth inhibition
RESULT_VALUE: -1.22
--
COMPOUND: CC(C)COC(=O)c1ccc(NC(=O)C2C3CCC(C3)C2C(=O)O)cc1 (stereo not given)
PARAMETER: growth inhibition
RESULT_VALUE: -5.98
--
COMPOUND: O=C(C1CC(=O)N(C2CCCC2)C1)N1CCN(c2ccc(F)cc2)CC1 (stereo not given)
PARAMETER: growth inhibition
RESULT_VALUE: 1.6
--
COMPOUND: O=C(c1cnccn1)N(c1ccccc1)C1(C(=O)NC2CCCCC2)CCCCC1
PARAMETER: growth inhibition
RESULT_VALUE: -1.08
